experiment_notes: Human HepG2 cell viability assay in 384 well format
Assay type: toxicity, cell-based
Set-up: dose 125 nL, time 70.5 hour; concentration not given beside the values
measurement_context: HepG2 cells, read-out: Inhibition
Below, each entry is listed alongside its reported cytotoxicity at 70.5 h.
Only the number, expressed in %, is required.

Below, 10 molecules whose answers are already recorded.
In [3]: df
Out[3]:
                                   molecule                 measure  units_of_measure  measured_number
0  O=C(NC(c1ccccc1)c1cccnc1)C1CC1 (stereo not given)  cytotoxicity at 70.5 h                 %            -6.82
1         C=CNC(=O)c1nnc2ccc(N3CCOCC3)cc2n1  cytotoxicity at 70.5 h                 %            -10.8
2  CN(Cc1cccnc1)CC1CCCN1c1cccnn1 (stereo not given)  cytotoxicity at 70.5 h                 %             13.1
3  CN(C)CCN1CCC2(CCN(C(=O)c3ccc(F)cc3)CC2)C1=O  cytotoxicity at 70.5 h                 %            -8.17
4   Cc1c(C(=O)N2CC(O)C2)nnn1-c1cccc2cnccc12  cytotoxicity at 70.5 h                 %            -8.03
5  NCC1Cc2cc(Oc3cc(F)c(CN4CCCC4)c(F)c3)ccc2O1 (stereo not given)  cytotoxicity at 70.5 h                 %            -11.4
6   COCc1ccc(C(=O)N2CCCN(c3ccc(F)cc3)CC2)s1  cytotoxicity at 70.5 h                 %             5.91
7  COCC(=O)N1CCCN(C(=O)C2Cc3ccccc3CN2C)CC1 (stereo not given)  cytotoxicity at 70.5 h                 %             11.5
8  COc1cccc(OC)c1C(=O)NCC(c1cccn1C)N1CCCC1 (stereo not given)  cytotoxicity at 70.5 h                 %            -5.44
9  O=C(NCc1ccco1)c1cccc(CN2CCCC2CO)c1 (stereo not given)  cytotoxicity at 70.5 h                 %            -8.88

Query block: // fetch cytotoxicity at 70.5 h given entry Cc1noc(C)c1CN1CCN(Cc2ccncc2)c2ncccc2C1
Result block: -7.22

Query block: // fetch cytotoxicity at 70.5 h given entry N#Cc1c(CN2CCCC2Cn2cccn2)cn2ccccc12 (stereo not given)
Result block: 18.8

Query block: // fetch cytotoxicity at 70.5 h given entry CNC(=O)CCS(=O)(=O)Cc1cc(Cl)c2c(c1)OCCCO2
Result block: -3.42

Query block: // fetch cytotoxicity at 70.5 h given entry CC(C)c1nccn1CC(=O)Nc1ccnn1C(C)C(C)C (stereo not given)
Result block: -16

Query block: // fetch cytotoxicity at 70.5 h given entry O=C1CN(C(=O)OCc2ccccc2)CC(O)CN1Cc1ccco1 (stereo not given)
Result block: 12.1

Query block: // fetch cytotoxicity at 70.5 h given entry Cc1nc2c(cc1C(=O)Nc1ccccc1Cl)c(=O)n(C)c(=O)n2C
Result block: -9.88

Query block: // fetch cytotoxicity at 70.5 h given entry c1ccc2nc(N3CCCC3c3nnc4n3CCCCC4)cnc2c1 (stereo not given)
Result block: 0.321
